- TARGET: human FPR2 (Homo sapiens (Human), UniProt P25090)
- Sequence (P25090 whole entry): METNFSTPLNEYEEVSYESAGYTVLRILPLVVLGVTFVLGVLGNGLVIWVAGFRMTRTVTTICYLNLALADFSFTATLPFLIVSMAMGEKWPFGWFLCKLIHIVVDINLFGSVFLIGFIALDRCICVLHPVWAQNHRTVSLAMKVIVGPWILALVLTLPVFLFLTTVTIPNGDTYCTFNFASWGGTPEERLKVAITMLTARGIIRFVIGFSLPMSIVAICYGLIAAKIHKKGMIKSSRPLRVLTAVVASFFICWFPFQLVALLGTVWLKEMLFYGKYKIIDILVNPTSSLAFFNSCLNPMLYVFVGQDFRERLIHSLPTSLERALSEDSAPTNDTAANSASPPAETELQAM
- ASSAY NOTES: FPR2 cyclic adenosine monophosphate (cAMP) assay
- REPORTED CONDITIONS: CHO cells overexpressing human FPR2; forskolin 5 µM; inhibition of cAMP production; read-out: hFPR2 cAMP2 EC50
READOUT NAME: EC50 (nM)

Here's what some known entries look like.
INSERT INTO results (compound, target, readout_name, measured_result) VALUES
  ('COc1cc(F)c([C@@H]2CN(c3ccc(CO)[nH]c3=O)C(=O)[C@H]2NC(=O)c2ccc(OC(F)(F)F)cc2)c(F)c1 [Example 240]', 'human FPR2 (Homo sapiens (Human), UniProt P25090)', 'EC50', 6.6),
  ('COc1cc(F)c([C@@H]2CN(c3cn(C)nc3OC)C(=O)[C@H]2NC(=O)c2ccc(OC(F)F)cc2)c(F)c1 [Example 630]', 'human FPR2 (Homo sapiens (Human), UniProt P25090)', 'EC50', 5.2);

P: COc1cc(F)c([C@@H]2CN(c3cccn(CC(C)(C)O)c3=O)C(=O)[C@H]2NC(=O)c2ccc(OC(F)F)cc2)c(F)c1 [Example 308]
Q: CC(O)Cn1cccc(N2C[C@@H](c3ccc(Cl)cc3)[C@H](NC(=O)c3ccc(OC(F)(F)F)cc3)C2=O)c1=O (stereo partly drawn) [Example 439]
R: COc1cc(F)c([C@@H]2CN(c3cccn(CC(OC)C(F)(F)F)c3=O)C(=O)[C@H]2NC(=O)c2ccc(OC(F)(F)F)cc2)c(F)c1 (stereo partly drawn) [Example 147]
S: COc1cc(F)c([C@@H]2CN(c3cccnc3C#N)C(=O)[C@H]2NC(=O)c2ccc(OC(F)(F)F)cc2)c(F)c1 [Example 21]
Exam item: list the entries in increasing order of EC50. Answer format: list of labels, ordered as asked.
R, Q, P, S
(R: 3.8 nM, Q: 5.5 nM, P: 9.9 nM, S: 35 nM)

---

- TARGET: human FPR1 (Homo sapiens (Human), UniProt P21462)
- Sequence (P21462 whole entry): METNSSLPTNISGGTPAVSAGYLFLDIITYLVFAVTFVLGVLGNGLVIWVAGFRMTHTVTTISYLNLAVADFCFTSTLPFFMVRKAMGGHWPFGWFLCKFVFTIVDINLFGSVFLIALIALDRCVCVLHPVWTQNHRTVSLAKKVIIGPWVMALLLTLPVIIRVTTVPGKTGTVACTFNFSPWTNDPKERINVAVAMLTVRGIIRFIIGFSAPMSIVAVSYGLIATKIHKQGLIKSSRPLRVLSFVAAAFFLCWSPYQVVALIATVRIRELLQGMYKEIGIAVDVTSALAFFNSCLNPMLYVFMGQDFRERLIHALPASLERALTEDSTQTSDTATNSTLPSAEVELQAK
- ASSAY NOTES: FPR1 cyclic adenosine monophosphate (cAMP) assay
- REPORTED CONDITIONS: CHO cells overexpressing human FPR1; forskolin 10 µM; inhibition of cAMP production; read-out: hFPR1 cAMP EC50
READOUT NAME: EC50 (nM)

Examples with answers:
INSERT INTO measurements (compound, measured_result) VALUES
  ('COc1cc(F)c([C@@H]2CN(c3nc(OCC4CCOC4)ccc3F)C(=O)[C@H]2NC(=O)c2ccc(OC(F)F)cc2)c(F)c1 (some centres unmarked)', 200),
  ('CCn1cccc(N2C[C@@H](c3c(F)cc(OC)cc3F)[C@H](NC(=O)c3ccc(C)cc3)C2=O)c1=O', 41),
  ('CCn1ccc(C)c(N2C[C@@H](c3ccc(OC)cc3F)[C@H](NC(=O)c3ccc(OC(F)F)cc3)C2=O)c1=O', 1.7),
  ('COCCn1ncc(C)c(N2C[C@@H](c3c(F)cc(OC)cc3F)[C@H](NC(=O)c3ccc(OC(F)(F)F)cc3)C2=O)c1=O', 2),
  ('COc1cc(F)c([C@@H]2CN(c3cccnc3C#N)C(=O)[C@H]2NC(=O)c2ccc(OC(F)F)cc2)c(F)c1', 4200),
  ('COCCn1cccc(N2C[C@@H](c3ccc(Cl)cc3)[C@H](NC(=O)c3ccc(OC(F)(F)F)cc3)C2=O)c1=O', 5.7),
  ('COc1cc(F)c([C@@H]2CN(c3c(C)ncn(CC(F)F)c3=O)C(=O)[C@H]2NC(=O)c2ccc(Cl)cc2)c(F)c1', 900),
  ('COc1cc(F)c([C@@H]2CN(c3c(C)ccn(CC(C)O)c3=O)C(=O)[C@H]2NC(=O)c2ccc(OC(F)F)cc2)c(F)c1 (some centres unmarked) [Example 360]', 18);

A: COCC(C(=O)N(C)C)n1ccc(C)c(N2C[C@@H](c3ccc(OC)cc3)[C@H](NC(=O)c3ccc(OC(F)F)cc3)C2=O)c1=O (some centres unmarked)
B: COc1cc(F)c([C@H]2[C@H](NC(=O)c3ccc(OC(F)F)cc3)C(=O)N(c3cccc(N4CC[C@H](O)C4)n3)[C@H]2C)c(F)c1
Hi, I'm comparing two records. Which one has the lower EC50, A or B ? Write the label of whichever entry you select.
A
(A: 0.6 nM, B: 440 nM)

---

- TARGET: human FPR1 (Homo sapiens (Human))
- ASSAY NOTES: FPR1 cyclic adenosine monophosphate (cAMP) assay
- REPORTED CONDITIONS: CHO cells overexpressing human FPR1; forskolin 10 µM; inhibition of cAMP production; read-out: hFPR1 cAMP EC50
READOUT NAME: EC50 (nM)

INSERT INTO assay_data (compound, readout_name, measured_result) VALUES
  ('COc1cc(F)c([C@@H]2CN(c3cccn(CC(O)C(F)(F)F)c3=O)C(=O)[C@H]2NC(=O)c2ccc(OC(F)F)cc2)c(F)c1 (single isomer, unassigned) [Example 5]', 'EC50', 14);

A: COc1cc(F)c([C@@H]2CN(c3cccn(CC(C)(CO)CO)c3=O)C(=O)[C@H]2NC(=O)c2ccc(OC(F)(F)F)cc2)c(F)c1 [Example 187]
B: CCn1cccc(N2C[C@@H](c3c(F)cc(OC)cc3F)[C@H](NC(=O)c3ccc(OC(F)F)cc3)C2=O)c1=O [Example 38]
Looking only at measured EC50, which entry is lower, A or B ? Could you answer with the label of the item you picked?
B
(B: 18 nM, A: 38 nM)

---

- TARGET: human FPR1 (Homo sapiens (Human), UniProt P21462)
- ASSAY NOTES: FPR1 cyclic adenosine monophosphate (cAMP) assay
- REPORTED CONDITIONS: CHO cells overexpressing human FPR1; forskolin 10 µM; inhibition of cAMP production; read-out: hFPR1 cAMP EC50
pEC50: −log10 of the molar value.
READOUT NAME: pEC50

INSERT INTO results (compound, measured_result) VALUES
  ('COc1cc(F)c([C@@H]2CN(c3cc(P(C)(C)=O)ccn3)C(=O)[C@H]2NC(=O)c2ccc(OC(F)(F)F)cc2)c(F)c1', 7.07),
  ('COc1cc(F)c([C@@H]2CN(c3cccn(CC4CC(F)(F)C4)c3=O)C(=O)[C@H]2NC(=O)c2ccc(OC(F)(F)F)cc2)c(F)c1', 7.57),
  ('COc1cc(F)c([C@@H]2CN(c3ncn(CC(C)C)n3)C(=O)[C@H]2NC(=O)c2ccc(Cl)cc2)c(F)c1', 6.20),
  ('COc1cc(F)c([C@@H]2CN(c3ccc[nH]c3=O)C(=O)[C@H]2NC(=O)c2ccc(Cl)cc2)c(F)c1', 6.12),
  ('COc1ccc([C@@H]2CN(c3c(C)ccn(CC4CC4)c3=O)C(=O)[C@H]2NC(=O)c2ccc(OC(F)F)cc2)cc1 [Example 459]', 9.70),
  ('COc1cc(F)c([C@@H]2CN(c3c(C)ccn(C(F)(F)C(=O)N4CCOCC4)c3=O)C(=O)[C@H]2NC(=O)c2ccc(OC(F)F)cc2)c(F)c1', 6.77);

I: COc1ccc([C@@H]2CN(c3c(C)ccn(CC(F)F)c3=O)C(=O)[C@H]2NC(=O)c2ccc(Cl)cc2)c(F)c1
II: COc1cc(F)c([C@@H]2CN(c3ccnn(CC(F)F)c3=O)C(=O)[C@H]2NC(=O)c2ccc(OC(F)(F)F)cc2)c(F)c1
Form: Entry with minimum pEC50 (choose one): I / II Give the label of your selection.
I

---

- TARGET: human FPR1 (Homo sapiens (Human), UniProt P21462)
- ASSAY NOTES: FPR1 cyclic adenosine monophosphate (cAMP) assay
- REPORTED CONDITIONS: CHO cells overexpressing human FPR1; forskolin 10 µM; inhibition of cAMP production; read-out: hFPR1 cAMP EC50
pEC50: −log10 of the molar value.
READOUT NAME: pEC50

# count of solved cases: 3
INSERT INTO measurements (molecule, readout_name, measured_result) VALUES
  ('COc1cc(F)c([C@@H]2CN(c3nc(N4CCC(O)C4=O)ccc3F)C(=O)[C@H]2NC(=O)c2ccc(OC(F)F)cc2)c(F)c1 (stereo partly drawn) [Example 199]', 'pEC50', 6.89),
  ('COc1cc(F)c([C@@H]2CN(c3cccc(N4C[C@@H]5C[C@H]4CN5C)n3)C(=O)[C@H]2NC(=O)c2ccc(OC(F)F)cc2)c(F)c1 [Example 531]', 'pEC50', 5.49),
  ('COCC(CO)n1nccc(N2C[C@@H](c3c(F)cc(OC)cc3F)[C@H](NC(=O)c3ccc(OC(F)(F)F)cc3)C2=O)c1=O (stereo partly drawn) [Example 452]', 'pEC50', 8.40);

a: COCC(C(=O)N(C)C)n1cccc(N2C[C@@H](c3c(F)cc(OC)cc3F)[C@H](NC(=O)c3ccc(OC(F)F)cc3)C2=O)c1=O (stereo partly drawn) [Example 92]
b: COc1cc(F)c([C@@H]2CN(c3cccn(C(F)F)c3=O)C(=O)[C@H]2NC(=O)c2ccc(OC(F)(F)F)cc2)c(F)c1 [Example 188]
Which of the two items, a and b , has the greater recorded pEC50? Indicate which entry you chose by stating its label.
a

Hello, the source for this data is patent US20230348426A1, in case you need it.
